- assay.text: Liver microsomal stability, phase I (NADPH), rat
- Format: in vitro ADME
- condition.parameters: rat, liver microsomes, pH 7.5, 0.1% DMSO, n ≥ 3, read-out: rat LM_NADPH t1/2
- Protocol: Phase I: 10 mM DMSO stock solution of the test compound was preincubated at 37 °C for 15 min with rat, dog, or human liver microsomes in 0.1 M Tris–HCl buffer (pH 7.5) with 10% DMSO. The final concentration was 4.6 μM. After preincubation, the cofactors (NADPH, G6P, G6PDH, and MgCl2 predissolved in 0.1 M Tris–HCl) were added to the incubation mixture and the incubation was continued at 37 °C for 1 h. […]
Below is a list of entries, each paired with its recorded half-life at 4.6 μM value.
measure.name: half-life at 4.6 μM

chemical.smiles	observed
Cc1ccc(F)c2[nH]c3c(c12)CN(C(=O)c1cc(C(F)(F)F)[nH]n1)[C@H](C)C3	> 1 h
O=C(c1cc(C(F)(F)F)[nH]n1)N1CCc2[nH]c3c(F)cccc3c2C1	> 1 h
